Hey, just so you know, these numbers are from patent US10167279B2.

target: C-Raf FL (Homo sapiens (Human), UniProt P04049, Y340E/Y341E); assay: In vitro Raf activity determination (Alpha Screen, phospho-MEK), C-Raf FL (full length, Y340E/Y341E); conditions: ATP 1 μM; 60 min pre-incubation; 1 hour reaction; column head does not say FL or TR
Sequence (P04049 whole entry Y340E/Y341E): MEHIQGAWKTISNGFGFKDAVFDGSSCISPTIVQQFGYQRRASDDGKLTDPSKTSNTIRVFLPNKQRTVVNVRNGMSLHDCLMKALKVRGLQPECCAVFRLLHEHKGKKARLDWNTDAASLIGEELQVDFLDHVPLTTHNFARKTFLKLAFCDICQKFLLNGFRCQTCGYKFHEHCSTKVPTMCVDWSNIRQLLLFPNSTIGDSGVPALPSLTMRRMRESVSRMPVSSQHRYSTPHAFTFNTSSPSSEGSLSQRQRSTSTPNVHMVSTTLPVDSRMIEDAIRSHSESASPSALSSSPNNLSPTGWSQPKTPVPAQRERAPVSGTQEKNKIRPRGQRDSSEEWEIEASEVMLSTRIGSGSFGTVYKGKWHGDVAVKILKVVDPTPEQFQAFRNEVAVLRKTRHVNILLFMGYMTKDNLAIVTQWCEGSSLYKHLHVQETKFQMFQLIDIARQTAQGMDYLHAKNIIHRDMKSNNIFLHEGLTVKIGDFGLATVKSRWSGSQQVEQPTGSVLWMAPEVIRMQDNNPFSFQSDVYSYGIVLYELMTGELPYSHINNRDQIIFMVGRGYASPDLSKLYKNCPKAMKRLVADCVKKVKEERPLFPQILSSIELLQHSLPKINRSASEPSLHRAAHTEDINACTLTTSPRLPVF
Sequence (P63104 whole entry partner): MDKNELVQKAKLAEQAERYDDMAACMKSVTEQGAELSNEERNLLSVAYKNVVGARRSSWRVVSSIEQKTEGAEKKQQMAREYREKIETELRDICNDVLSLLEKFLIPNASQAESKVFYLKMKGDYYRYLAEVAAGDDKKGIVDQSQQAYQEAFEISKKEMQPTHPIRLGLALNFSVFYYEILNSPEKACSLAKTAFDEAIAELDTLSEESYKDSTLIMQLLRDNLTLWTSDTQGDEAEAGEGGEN
Reported IC50 by item:
ASSAY_ENDPOINT: IC50

CHEM_SMILES: Cc1ccc(NC(=O)c2ccnc(C(F)(F)F)c2)cc1-c1cc(OCCO)nc(C2(F)CCOCC2)c1
VALUE_OBSERVED: 0.83 nM
--
CHEM_SMILES: COc1ncc(-c2cc(NC(=O)c3cc(C(C)(C)N)cc(C(F)(F)F)c3)cnc2C)cc1C1(C(F)F)COC1
VALUE_OBSERVED: 0.9 nM
--
CHEM_SMILES: COc1ncc(-c2cc(NC(=O)c3ccnc(C(C)(C)F)c3)cnc2C)cc1C1(C(F)F)COC1
VALUE_OBSERVED: 0.243 nM
--
CHEM_SMILES: Cc1ccc(NC(=O)c2ccnc(C(F)(F)F)c2)cc1-c1cc(C2(O)COC2)cc(C2(F)COC2)c1
VALUE_OBSERVED: 0.605 nM
--
CHEM_SMILES: COc1ncc(-c2cc(NC(=O)c3ccnc(C(C)(C)O)c3)cnc2C)cc1C1(F)COC1
VALUE_OBSERVED: 4.85 nM
--
CHEM_SMILES: Cc1ccc(NC(=O)c2cc(C(F)(F)F)ccn2)cc1-c1cc(NCCO)nc(C2(O)CCOCC2)c1
VALUE_OBSERVED: 1.99 nM
--
CHEM_SMILES: Cc1ccc(NC(=O)c2ccnc(C3(C(F)(F)F)CC3)c2)cc1-c1cc(OCCO)nc(C2CCOCC2)c1
VALUE_OBSERVED: 0.3 nM

---

Biological target: C-Raf FL (Homo sapiens (Human), UniProt P04049, Y340E/Y341E)
Test: In vitro Raf activity determination (Alpha Screen, phospho-MEK), C-Raf FL (full length, Y340E/Y341E)
Format: biochemical
Conditions: ATP 1 μM; 60 min pre-incubation; 1 hour reaction; column head does not say FL or TR
Description: The activity of a compound according to the present invention can be assessed by well-known in vitro & in vivo methods. Raf inhibition data provided herein was obtained using the following procedures. Sf9 cells co-expressing both proteins were lysed and subjected to immobilized nickel chromatography and eluted with Imidazole. A second column (StrepII binding column) was used and eluted with desthiobiotin. […]
pIC50: −log10 of the molar value.
Assign Yes whenever pIC50 does not fall below 9; assign No whenever it does.

COMPOUND: COc1ncc(-c2cc(NC(=O)c3cccc(C(F)(F)F)c3)cnc2C)cc1C1(CF)COC1 [Example 49]
LABEL_CLASS: Yes

COMPOUND: Cc1ncc(NC(=O)c2ccnc(C(F)(F)F)c2)cc1-c1cc(NCCO)nc(C2CCOCC2)c1 [Example 181]
LABEL_CLASS: Yes

COMPOUND: CCOc1ncc(-c2cc(NC(=O)c3cccc(C(F)(F)F)c3)cnc2C)cc1C1(CO)CCOC1 (stereo not shown) [Example 290]
LABEL_CLASS: No

COMPOUND: CCOc1nnc(-c2cc(NC(=O)c3cc(C(F)(F)F)c[nH]c3=O)ccc2C)cc1C1CCOCC1 [Example 226]
LABEL_CLASS: No

COMPOUND: Cc1ccc(NC(=O)c2cncc(C(F)(F)F)c2)cc1-c1cc(OC[C@H](O)CO)nc(C2CCOCC2)c1 [Example 281]
LABEL_CLASS: Yes

COMPOUND: Cc1ccc(NC(=O)c2ccnc(C(C)(C)F)c2)cc1-c1cc(C2(O)COC2)cc(C2(F)COC2)c1 [Example 137]
LABEL_CLASS: No
